- System: L-02 (normal human hepatocytes)
- Experimental details: Cytotoxicity assay, SRB method, L-02
- Type: cell-based
- Cond: Homo sapiens, L02; L-02 cells, SRB method
Value kind: IC50

Examples from the recorded data:
Cc1cc(O)c(CC[C@H](C)C(=O)O)c2scnc12 [Compound 3b, Chrysobenzothiazole A]: > 30 µM
CC1C(CCc2nc3ccccc3c(=O)[nH]2)C2CC(=O)C1(C)C(=O)C2(C)O (stereo not drawn) [Compound 1, Chrysoquinazolinone A]: > 30 µM

As a next step, examine the compound that follows.
[ask] For the compound C/C=C/C=C/C(=O)c1cc(C)c(C(=O)O)c(C)c1O [Compound 5, 4-Carboxylsorbicillin] , what IC50 is on record?
[reply] > 30 µM
